The reported measurements were obtained from patent US20200071310A1.

target: Keap1 (321-609) Kelch domain / TAMRA-labeled NRF2 peptide (ETGE motif) (Homo sapiens, UniProt Q14145); construct: the Kelch domain (321-609) of Keap1 is used; assay: NRF2-Keap1 FP Assay; details: Keap1 (321-609) 20 nM, Tamra labeled peptide 8 nM
Sequence (Q14145 321-609): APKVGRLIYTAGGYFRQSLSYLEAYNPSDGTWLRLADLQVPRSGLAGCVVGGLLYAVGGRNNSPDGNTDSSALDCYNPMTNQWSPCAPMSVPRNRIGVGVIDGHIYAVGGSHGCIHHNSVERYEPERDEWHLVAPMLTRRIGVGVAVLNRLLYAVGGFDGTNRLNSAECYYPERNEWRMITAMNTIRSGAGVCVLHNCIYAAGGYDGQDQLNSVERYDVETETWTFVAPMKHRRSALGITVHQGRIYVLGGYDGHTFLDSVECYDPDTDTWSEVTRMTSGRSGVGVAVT
pEC50: −log10 of the molar value. Where a name gives a salt, the structure may show the parent alone.
Quantity Measured: pEC50

> print(dat)
                                   molecule  value.observed
1  CN(Cc1cccc(-n2ncc(C(=O)O)c2[C@@H]2C[C@H]2c2cn(C)nn2)c1)S(=O)(=O)c1ccc(-c2ccccc2)cc1 (relative stereo) [Example 39]    7.00 to 8.00
2  CC[C@@H]1CN(Cc2cc(-n3ncc(C(=O)O)c3C3C[C@H]3c3cn(C)nn3)ccc2C)S(=O)(=O)c2ccccc2O1 (stereo partly drawn) [Example 25]    8.00 to 9.00
3  Cn1cc([C@@H]2C[C@H]2c2c(C(=O)O)cnn2-c2cccc(CN3Cc4ccccc4OC(C)(C)C3)c2)nn1 (racemic) [Example 8]    7.00 to 8.00
4  CCOc1ccc(Br)cc1CN(C)Cc1cccc(-n2ncc(C(=O)O)c2[C@@H]2C[C@H]2c2cn(C)nn2)c1 (racemic) [Example 54, trifluoroacetate]    6.00 to 7.00
5  CN(Cc1cccc(-n2ncc(C(=O)O)c2[C@@H]2C[C@H]2c2cn(C)nn2)c1)S(=O)(=O)c1ccccc1Oc1ccccc1 (relative stereo) [Example 38]    7.00 to 8.00

Record summary for CN(Cc1cccc(-n2ncc(C(=O)O)c2[C@@H]2C[C@H]2c2cn(C)nn2)c1)S(=O)(=O)c1cccc(Oc2ccccc2)c1 (racemic) [Example 35] : reported pEC50 = 7.00 to 8.00

Record summary for CN(Cc1cccc(-n2ncc(C(=O)O)c2[C@@H]2C[C@H]2c2cn(C)nn2)c1)S(=O)(=O)c1ccccc1 (racemic) [Example 48] : reported pEC50 = 6.00 to 7.00

Record summary for C[C@H]1Cc2ccc(C(F)(F)F)cc2S(=O)(=O)N([C@H]2CCc3c2cccc3-n2ncc(C(=O)O)c2[C@@H]2C[C@H]2c2cn(C)nn2)C1 [Example 26a] : reported pEC50 = 7.00 to 8.00

Record summary for COc1ccccc1S(=O)(=O)NCc1cccc(-n2ncc(C(=O)O)c2[C@@H]2C[C@H]2c2cn(C)nn2)c1 (racemic) [Example 52] : reported pEC50 = 6.00 to 7.00

Record summary for CN(Cc1cccc(-n2ncc(C(=O)O)c2[C@@H]2C[C@H]2c2cn(C)nn2)c1)S(=O)(=O)c1c(Cl)cccc1C(F)(F)F (racemic) [Example 41] : reported pEC50 = 6.00 to 7.00

Record summary for Cn1cc([C@@H]2C[C@H]2c2c(C(=O)O)cnn2-c2cccc(Cn3ccnc3CN3CCCCC3)c2)nn1 (racemic) [Example 24] : reported pEC50 = 7.00 to 8.00

Record summary for COc1ccccc1S(=O)(=O)N(Cc1cccc(-n2ncc(C(=O)O)c2[C@@H]2C[C@H]2c2cn(C)nn2)c1)C1CC1 (racemic) [Example 53] : reported pEC50 = 5.00 to 6.00
